- PROTOCOL SUMMARY: recombinant barcode read abundance after kanamycin selection (control-corrected) (log10(CPM+1)); higher = more efficient recombination; sequences stand for … in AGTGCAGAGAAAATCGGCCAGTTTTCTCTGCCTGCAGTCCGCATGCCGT…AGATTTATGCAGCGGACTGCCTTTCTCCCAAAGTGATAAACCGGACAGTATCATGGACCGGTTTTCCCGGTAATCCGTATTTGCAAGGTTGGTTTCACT; site = the 11-nt target;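 further: IS621 recombinase and bridge RNA in Escherichia coli cells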
Values of recombinant barcode read abundance (log10) greater than or equal to 0.2 map to class 1; values below map to class 0.

SEQ TEXT: TCCGAGGCTTGGGTTCTAACCTGTTGCTG (site TCTGAGGCTCA)
GROUP LABEL: class 1
--
SEQ TEXT: CAGTCTGCTTGGGTTCTAACCTGTTGCCT (site CATTCTGCTAG)
GROUP LABEL: class 0
--
SEQ TEXT: GACGTAGCTTGGGTTCTAACCTGTTGCCT (site GACGTAGCTAG)
GROUP LABEL: class 1
--
SEQ TEXT: GCCACACCTTGGGTTCTAACCTGTTGCCT (site GCCAGACCTAG)
GROUP LABEL: class 0
--
SEQ TEXT: TAGACCTCTTGGGTTCTAACCTGTTGCCT (site TAGACCTCTAG)
GROUP LABEL: class 1
--
SEQ TEXT: CACTGGACTTGGGTTCTAACCTGTTGCCT (site CACTGGACTAG)
GROUP LABEL: class 1
--
SEQ TEXT: GTCACGCCTTGGGTTCTAACCTGTTGCAT (site GTCACGCCTAT)
GROUP LABEL: class 1
--
SEQ TEXT: TCCTAGGCTTGGGTTCTAACCTGTTGCGC (site TCTTAGGCTAC)
GROUP LABEL: class 0
--
SEQ TEXT: GCAAGATCTTGGGTTCTAACCTGTTGCCT (site GCAGGGTCTAG)
GROUP LABEL: class 0
--
SEQ TEXT: ACAGGCGCTTGGGTTCTAACCTGTTGCCT (site ACAGTCGCTAG)
GROUP LABEL: class 0
--
SEQ TEXT: CAGGGGACTTGGGTTCTAACCTGTTGCCA (site CCGTGGACTTG)
GROUP LABEL: class 1
--
SEQ TEXT: AAGGTTCCTTGGGTTCTAACCTGTTGCTA (site AAGGTTCCTTA)
GROUP LABEL: class 1
--
SEQ TEXT: TACCTATCTTGGGTTCTAACCTGTTGCCT (site TACCTATCTAG)
GROUP LABEL: class 1
--
SEQ TEXT: GTCTATGCTTGGGTTCTAACCTGTTGCCT (site GACTATGCTAG)
GROUP LABEL: class 0
--
SEQ TEXT: TTGCTAACTTGGGTTCTAACCTGTTGCCT (site TTGCCAACTAG)
GROUP LABEL: class 0
--
SEQ TEXT: AGAGCGACTTGGGTTCTAACCTGTTGCCT (site AGAGGGACTAG)
GROUP LABEL: class 1
--
SEQ TEXT: GATGGCCCTTGGGTTCTAACCTGTTGCCT (site GCTGGCCCTAG)
GROUP LABEL: class 0
--
SEQ TEXT: GCAATGTCTTGGGTTCTAACCTGTTGCCT (site GAAATGTCTAG)
GROUP LABEL: class 0
--
SEQ TEXT: CGACGTACTTGGGTTCTAACCTGTTGCCT (site CGCCGTACTAG)
GROUP LABEL: class 1
--
SEQ TEXT: GTCTCTCCTTGGGTTCTAACCTGTTGCAG (site AAGGGCTCTAA)
GROUP LABEL: class 0
--
SEQ TEXT: AAGGACGCTTGGGTTCTAACCTGTTGCCT (site AAGGTCGCTAG)
GROUP LABEL: class 0
--
SEQ TEXT: GGTAGGACTTGGGTTCTAACCTGTTGCGG (site GGTAGGACTCC)
GROUP LABEL: class 1
--
SEQ TEXT: ATTCGAGCTTGGGTTCTAACCTGTTGCGG (site GTTCGAGCTCC)
GROUP LABEL: class 0
--
SEQ TEXT: CATTGGACTTGGGTTCTAACCTGTTGCTT (site CATTGGACTAA)
GROUP LABEL: class 1
--
SEQ TEXT: GAATGTCCTTGGGTTCTAACCTGTTGCAT (site GCATGTCCTAT)
GROUP LABEL: class 0
--
SEQ TEXT: TAATGAACTTGGGTTCTAACCTGTTGCCT (site TAATGTACTAG)
GROUP LABEL: class 1
--
SEQ TEXT: AGTAAGACTTGGGTTCTAACCTGTTGCCT (site AGTAAGACTAC)
GROUP LABEL: class 0
--
SEQ TEXT: CGGGCAGCTTGGGTTCTAACCTGTTGCCT (site CGTGCAGCTAG)
GROUP LABEL: class 0
--
SEQ TEXT: TAGACATCTTGGGTTCTAACCTGTTGCTC (site TAGCCATCTGA)
GROUP LABEL: class 0
--
SEQ TEXT: TATTCTACTTGGGTTCTAACCTGTTGCGA (site TATTCTACTTC)
GROUP LABEL: class 0
--
SEQ TEXT: CTATTGACTTGGGTTCTAACCTGTTGCCT (site CTATAGACTAG)
GROUP LABEL: class 0
--
SEQ TEXT: AACTGAACTTGGGTTCTAACCTGTTGCCT (site AACTGAACTAG)
GROUP LABEL: class 1
--
SEQ TEXT: TGGCTAGCTTGGGTTCTAACCTGTTGCCT (site TGACTAGCTAG)
GROUP LABEL: class 0
--
SEQ TEXT: ATACTACCTTGGGTTCTAACCTGTTGCGG (site ATCCCACCTCC)
GROUP LABEL: class 0
--
SEQ TEXT: CGATTATCTTGGGTTCTAACCTGTTGCCT (site CGATTAACTAG)
GROUP LABEL: class 1
--
SEQ TEXT: AGGATATCTTGGGTTCTAACCTGTTGCCT (site ACGATATCTAG)
GROUP LABEL: class 0
--
SEQ TEXT: GACAGGACTTGGGTTCTAACCTGTTGCCT (site GACAGGACTAG)
GROUP LABEL: class 1
--
SEQ TEXT: GAACTGTCTTGGGTTCTAACCTGTTGCCA (site GAACTGTCTTG)
GROUP LABEL: class 1
--
SEQ TEXT: CAGCAGCCTTGGGTTCTAACCTGTTGCTT (site CAGCAGCCTAA)
GROUP LABEL: class 1
